The reader will find reported phosphorylation enrichment values listed item by item below.
STUDY_TARGET: Fyn (UniProt P06241)
Sequence (P06241 whole entry, looked up): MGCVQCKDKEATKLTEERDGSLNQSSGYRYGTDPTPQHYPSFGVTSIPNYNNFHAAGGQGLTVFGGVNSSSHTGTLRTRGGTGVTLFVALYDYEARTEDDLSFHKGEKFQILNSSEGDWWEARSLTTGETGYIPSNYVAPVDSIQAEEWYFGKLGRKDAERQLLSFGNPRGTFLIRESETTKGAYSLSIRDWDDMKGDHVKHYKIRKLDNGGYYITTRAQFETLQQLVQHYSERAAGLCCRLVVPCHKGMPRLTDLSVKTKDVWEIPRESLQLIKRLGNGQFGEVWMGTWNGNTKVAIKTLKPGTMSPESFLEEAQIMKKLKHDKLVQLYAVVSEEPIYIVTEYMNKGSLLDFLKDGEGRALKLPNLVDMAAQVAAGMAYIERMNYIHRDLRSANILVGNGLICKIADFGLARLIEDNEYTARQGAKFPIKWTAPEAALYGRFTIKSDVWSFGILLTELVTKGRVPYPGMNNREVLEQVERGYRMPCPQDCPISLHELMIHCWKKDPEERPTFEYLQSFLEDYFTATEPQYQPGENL
ASSAY_TEXT: phosphorylation enrichment, bacterial display (enrichment ratio); higher = better substrate or ligand; peptides without Tyr show the background;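 also: 11-residue human phosphosite peptides and single-mutation variants displayed on the E. coli surface, counted by deep sequencing, each peptide's frequency after selection divided by its frequency in the unselected input library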;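 also: frequency after pTyr selection over input frequency; kinase dosed for 20-30% of maximal phosphorylation in three min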
MEASURED_ENDPOINT: phosphorylation enrichment

>>> numeric_readout("ALCHYYKLNII [ETV6_Y402_R399C]")
0.798
>>> numeric_readout("PTTKTYFRHFD [HBA1_Y43_P45R]")
0.393
>>> numeric_readout("ELTSVYGSRAR [SENP1_Y349_D350G]")
1.97

###

System: c-Src
ASSAY_TEXT: phosphorylation enrichment, bacterial display (enrichment ratio); higher = better substrate or ligand; peptides without Tyr show the background
Could you label it Condition met if measured phosphorylation enrichment is 0.6 or higher, and Condition not met otherwise?

>>> label_value("MDDKEYYSVHN [MET_Y1234_Y1230D]")
"Condition met"
>>> label_value("LKLWDYSRGRC [WDR5B_Y239]")
"Condition not met"
>>> label_value("PYTDPYYDYEI [ZC3H18_Y371_A368T]")
"Condition met"
>>> label_value("VERRVYAEDPY [PCCA_Y401_C398R]")
"Condition met"
>>> label_value("EQLRAYLEGEC [HLA-C_Y183_T187E]")
"Condition not met"
>>> label_value("GDYYRSLAEVA [YWHAG_Y133_Y133S]")
"Condition met"
>>> label_value("SEASFYKSLNL [NGEF_Y289_YF]")
"Condition not met"
>>> label_value("HNELYYEAAEH [VANGL1_Y345_E347A]")
"Condition met"
>>> label_value("TNEFEYDELIV [TGM1_Y136_D132N_YF]")
"Condition met"
>>> label_value("CEHFSYFGMKA [SLC15A2_Y60_R57H_YF]")
"Condition met"
>>> label_value("LRNIDYFRLDG [ATRX_Y2083_YF]")
"Condition met"
>>> label_value("NTVDYYDLYGG [PTPN11_Y63_G60V]")
"Condition met"
>>> label_value("QMVDMYASSYM [AVPR2_Y124_G122D]")
"Condition met"
>>> label_value("YVPSNYVAEDR [FRK_Y104_I100V]")
"Condition not met"
>>> label_value("RAFSWYQHQRA [NDST1_Y714_YF]")
"Condition not met"
>>> label_value("FMGVEYSSCDT [EPHA3_Y937_T933M]")
"Condition not met"
>>> label_value("PMWHPYKADVT [TP53TG5_Y255_V257A]")
"Condition met"
>>> label_value("TFWKKYCTFWK [CCDC70_Y125_R126C]")
"Condition not met"
>>> label_value("QNTGFYFDLFG [PTPN11_Y62_D61Y_YF]")
"Condition met"
>>> label_value("EVDGLYREAPI [MYL12B_Y143_E141G]")
"Condition not met"

Taken from the supplement of paper PMC10065799.
